The origin of these recorded values is ChEMBL document CHEMBL3988442.

- Tested on: Trypanosoma brucei
- Protocol Summary: Trypanosoma brucei 72 hour study
- Format: functional, organism-based
- Design: scale not given: in the data most compounds retested in dose-response had high values
- Conditions Used: 30.3 µM; […]
Out of some 66,000 compounds screened, about 960 (1.5%) showed an effect of 50% or more. Shown is part of a subset that was picked to be rich in strong results.
Endpoint Label: Percent Effect
Mention the unit after the number when you answer.

Here's what some known entries look like.
• COCCN1CCC2(CC1)CCN(Cc1ccccn1)CC2.O=C(O)C(F)(F)F.O=C(O)C(F)(F)F = -12.12%
• Cc1cc(-c2cnc(N3CCSCC3)nc2C(C)C)on1 = -15.33%
• COc1ccc(-c2nc(CN3CCCC(OC)C3)c(C)o2)c(F)c1 (stereo not given) = 99.32%

Query: I have this compound here, COCc1ncn(Cc2nc(-c3ccc(OC)cc3F)oc2C)n1 , and I need its recorded Percent Effect.
Result: -22.44%

Query: Would you mind telling me what Percent Effect value was observed for Cn1cc(-c2ncc3c(c2C(=O)O)CCN(CC2CC2)C3)cn1.O=C(O)C(F)(F)F.O=C(O)C(F)(F)F ?
Result: -26.37%
